viability at 28.5 h, 10 µM values for the compounds below.
assay.name: in vitro
condition.description: human, hela cells, % viability
reported.metric: viability at 28.5 h, 10 µM (%)

                                    compound  result_value
 0  CCOc1ccccc1-c1ccccc1NC(=O)c1ccc(-n2nc(C)cc2C)cc1 [CBK285845]          54.1
 1  CN(Cc1ccccc1)C(=O)c1c[nH]nc1C1CCCN(Cc2cccc(Cl)c2)C1 (stereo not drawn) [CBK286490]            91
 2  Cc1csc2c(C3CCCN(C(=O)c4cc[nH]n4)C3)nc(C)n12 (stereo not drawn) [CBK285238]          88.1
 3    CCNc1cc(-c2cncc(OC)c2)ncn1 [CBK090881]           101
 4  CCOC(=O)c1ccc(NC(=O)c2ccccc2-c2nc(-c3ccccc3Cl)no2)cc1 [CBK268919]           111
 5  CCN(CC(C)C#N)C(=O)c1nn(-c2ccccc2)c(C)cc1=O (stereo not drawn) [CBK304925]           109
 6  CSc1nnc(CC2CCN(C(=O)c3ccc(C)cc3F)CC2)n1C [CBK306939]           105
 7  COc1ccc([C@@]23CC[C@@H](NS(=O)(=O)c4cccc5cccnc45)C[C@@H]2N(C)CC3)cc1OC [CBK056849T]          80.8
 8  CN(C)CCN1C(=O)C(O)=C(C(=O)c2ccc(S(=O)(=O)N3CCOCC3)cc2)C1c1ccc(Br)cc1 (stereo not drawn) [CBK264693]          93.5
 9  COc1cc(C(=O)Nc2cc(-c3nc4ncccc4o3)ccc2C)ccc1OCc1ccc(Cl)cc1 [CBK264704]           112
10  CCC(CO)Nc1nccnc1-c1cccc(F)c1 (stereo not drawn) [CBK036775]           108
11  COCCN(CC1CC1)C(=O)c1cc(NC(C)=O)ccc1Cl [CBK304352]           109
12  Cc1cc(NC(=O)N2CCCN(CC3CCCCC3)CC2)no1 [CBK306239]          99.9
13  Cc1ccccc1CSc1nc2ccc([N+](=O)[O-])cc2[nH]1 [CBK267879]          96.2
14  COc1ccc(-c2c3c(nc4sc(C#N)c(N)c24)CCCC3)cc1 [CBK270279]            80
15  COc1cc(C)c(Nc2cc(-c3ccc4c(c3)OCO4)ncn2)cc1OC [CBK037711]          98.9
16  O=S(=O)(Nc1ccc(C(O)(C(F)(F)F)C(F)(F)F)cc1)c1csc2ccccc12 [CBK062098]          85.4
17  c1ccc2c(CCN3CCC(Oc4cncc(OCCN5CCOCC5)n4)C3)c[nH]c2c1 (stereo not drawn) [CBK084500]           100
18  COc1cccc(-c2ccc(NC(=O)c3ccc(Cn4cnnn4)cc3)cc2)c1 [CBK285850]          93.4
19  CCOc1ccc(S(=O)(=O)N2CCC(C(=O)O)CC2)cc1Cl [CBK269759]          97.4
20  CNC(=O)c1nn(CCCc2ccc(OC)cc2)c2ccccc12 [CBK105842]           109
21  O=C1NCCN1CCOc1nccnc1-c1ccc(F)cc1 [CBK106898]          97.8
22  O=C(O)C1CCN(C(=O)NCCOc2ccccc2)CC1 [CBK156072]          82.2
23  CCc1cccc2c(CN3CCc4c(nc(C)[nH]c4=O)C3)c[nH]c12 [CBK283993]          94.6
24  c1ccc(COc2nccnc2-c2cccs2)nc1 [CBK107055]           107
25  COc1ccc(OC)c(S(=O)(=O)N2CCN(c3ncccn3)CC2)c1 [CBK008662]          92.7
26  O=C(NC1CCc2ccccc21)N1CCN(Cc2ccccc2)CC1 (stereo not drawn) [CBK155662]            97

###

viability at 28.5 h, 10 µM values for the compounds below.
assay.name: in vitro
condition.description: human, hela cells, % viability
reported.metric: viability at 28.5 h, 10 µM

>>> df
                                    compound  result_value
 0            CC(C)(CO)CNc1nc(-c2ccsc2)cnc1N          103%
 1        O=C(NCCN1CCOCC1)N1CCN(c2ccccc2)CC1         83.8%
 2  COCCn1ccc(NC(=O)N2CCCC(c3cc(F)ccc3F)C2)n1 (stereo not shown)         79.6%
 3  Cc1n[n+]2c(C(=O)Nc3ccc(S(=O)(=O)Nc4nccs4)cc3)c(C)[n-]n2c1[N+](=O)[O-]         83.2%
 4  O=C(c1ccc(COc2ccccc2Cl)o1)N1CCN(Cc2ccc3c(c2)OCO3)CC1 [CBK265750C]         87.3%
 5  Cc1cccn2c(CN3CC(O)C3)c(C(=O)N3CCCCC3)nc12         88.3%
 6    CCOC(=O)c1ccc(Nc2nnc3nc(C)cc(C)n23)cc1         93.1%
 7  NS(=O)(=O)c1ccc(CNC(=O)C(Sc2ccccc2)c2ccccc2)cc1 (stereo not shown)         91.5%
 8  COC(=O)N1CCC(C(=O)NC(c2ccccc2)c2ncccc2C)CC1 (stereo not shown)         92.6%
 9  COc1ccc2c(c1)C1(CC(=O)N(CC3CCCCC3)C1=O)C(=O)N2C (stereo not shown)          100%
10  CCCCC(=O)N1CCC2(CC1)CC(=O)c1ccc(OCc3ccccc3)c(C)c1O2          104%
11  O=C(NC1CCS(=O)(=O)C1)c1cnc2c(OC(F)(F)F)cccc2c1O (stereo not shown)         99.7%
12  CNCCC(Sc1ccccn1)c1ccccc1 (stereo not shown) [CBK021724C]         93.5%
13  CC(C)(C)S(=O)(=O)Cc1noc(-c2ccc(Cl)nc2)n1         98.9%
14  COc1cc(-c2cn3ccnc3c(N[C@H](CO)C(C)C)n2)cc(OC)c1OC          103%
15  Cc1cc(Cl)ccc1OC(C)C(=O)Nc1cc(C(=O)O)cc(C(=O)O)c1 (stereo not shown)          103%
16  O=C1NC2=C(C(=O)N(CCN3CCCC3)C2)C(c2cccc(F)c2)N1 (stereo not shown)          105%
17  CCOC(=O)N1CCN(S(=O)(=O)c2ccc3c(c2)oc(=O)n3CC)CC1           99%
18  O=C(CC1CC2CCC1C2)N1CCC(O)(c2ccccn2)CC1 (stereo not shown)         92.7%
19        COc1ccc(OC)c(NS(=O)(=O)c2ccccc2)c1           73%
20  CC(C)c1ccc(NC(=O)O[C@@H]2CO[C@H]3[C@@H]2OC[C@@H]3NC(=O)C2CC2)cc1           99%
21           c1cncc(-c2nccnc2NCCCN2CCOCC2)c1          107%
22  NS(=O)(=O)c1ccc(NC2=NC(=O)C(CC(=O)Nc3ccc(Br)cc3)S2)cc1 (stereo not shown)          117%
23              CC(=O)Nc1nc2cc3c(cc2s1)OCCO3         96.2%
24  O=C(CC[C@@H]1CNC(=O)[C@@H]2C[C@H](NC(=O)c3cccc(F)c3)CN12)Nc1ccccc1         83.9%
25  NC(=O)CN1CC2(CCN(Cc3cccc(C(F)(F)F)c3)CC2)c2ccccc21         93.1%
26  CCCC/C=C/c1cncc(N2CCCC2CO)n1 (stereo not shown)         91.8%
27  N#Cc1ccccc1CSCCNC(=O)c1ccc(NC(=O)c2ccco2)s1         80.8%
28  CC1CCCCN1C(=O)c1ccc(-n2ccnc2)c(-n2cccc2)c1 (stereo not shown)         95.5%
29  O=C(CN1CCNCC1)Nc1ccc(Oc2ccccc2)cc1 [CBK267191C]          102%
30  Cc1ccc(S(=O)(=O)NNC(=O)COc2cccc3cccnc23)cc1         90.1%
31  NS(=O)(=O)c1ccc(Cn2c(=O)[nH]c3ncc(-c4ccco4)nc32)cc1         96.8%
32  CC(=O)N1CC[C@@H]2NC(=O)[C@H]3C[C@H](NC(=O)c4ccc(F)c(Cl)c4)CN3C(=O)[C@H]21           87%
33  O=C(NC(Cc1cccs1)c1nccs1)C1CSCN1 (stereo not shown)         91.4%
